- experimental.target: T1, AAV8 (adeno-associated virus 8, Assembled 60-mer capsid of VP1/VP2/VP3 (nested products of one cap gene), amine-coupled to a CM5 chip; the letters give one VP1 subunit only.)
- T1 construct: also called adeno-associated virus serotype 8
- T1 chain: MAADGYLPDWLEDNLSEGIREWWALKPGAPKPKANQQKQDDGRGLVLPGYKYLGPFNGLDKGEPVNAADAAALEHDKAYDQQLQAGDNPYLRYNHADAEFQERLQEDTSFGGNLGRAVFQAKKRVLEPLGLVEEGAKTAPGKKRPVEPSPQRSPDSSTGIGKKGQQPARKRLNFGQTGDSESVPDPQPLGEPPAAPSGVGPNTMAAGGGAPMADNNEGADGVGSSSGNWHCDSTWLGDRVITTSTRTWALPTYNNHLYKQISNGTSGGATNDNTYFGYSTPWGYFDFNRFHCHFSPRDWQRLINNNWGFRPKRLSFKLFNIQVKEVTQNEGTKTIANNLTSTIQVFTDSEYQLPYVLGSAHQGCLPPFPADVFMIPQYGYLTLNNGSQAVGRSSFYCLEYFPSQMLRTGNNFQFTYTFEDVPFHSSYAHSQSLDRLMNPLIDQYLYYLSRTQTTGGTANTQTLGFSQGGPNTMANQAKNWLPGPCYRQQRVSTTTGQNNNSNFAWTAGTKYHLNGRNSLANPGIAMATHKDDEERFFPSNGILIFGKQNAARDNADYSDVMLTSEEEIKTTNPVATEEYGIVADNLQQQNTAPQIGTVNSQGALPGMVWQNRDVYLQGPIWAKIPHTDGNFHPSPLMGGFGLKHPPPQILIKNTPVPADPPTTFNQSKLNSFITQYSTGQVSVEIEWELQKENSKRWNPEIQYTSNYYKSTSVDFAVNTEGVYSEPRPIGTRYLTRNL
- assay: SPR, AAV amine-coupled to CM5 chip
koff values by entry

A selection of reference data follows.
A4-C9 (bispecific antibody) VQLQESGGGLVQPGGSLRLSCAASGSNFSINTMGWYRQAPGKQRELVATVTRGGDTNYADSVKGRFTISRDNAKNTVYLQMNSLRPEDTAVYYCHVDEIRESSWTTSNLWGQGTQVTVSSGGGGSGGGGSGGGGSVQLQESGGGLVQPGGSLRLSCAASGSNFSINTMGWYRQAPGKQRELVAALTRGGSTNYADSVKGRFTISRDNAKNTVYLQMNSLRPEDTAVYYCHVDEVRESSWTTSNLWGQGTQVTVSSGGGGSGGGGSGGGGSVQLQESGGGLVQPGGSLRLSCAASGSNFRINTMGWYRQAPGKQRELVAPVTRGGSTNYADSVKGRFTISRDNAKNTVYLQMNSLRPEDTAVYYCHVDEVRESSWTTSNLWGQGTQVTVSS    0.00013 s⁻¹
A4-C2 (VHH) VQLQESGGGLVQPGGSLRLSCAASGSAFSINTMGWYRQAPGKQRELVASVTPGGSTNYADSVKGRFTISRDNAKNTIYLQMNSLRPEDTAVYYCHLDEVRESSWTTSNLWGQGTQVTVSSGGGGSGGGGSGGGGSVQLQESGGGLVQPGGSLRLSCAASGSAFSINTMGWYRQAPGKQRELVASVTPGGSTNYADSVKGRFTISRDNAKNTIYLQMNSLRPEDTAVYYCHLDEVRESSWTTSNLWGQGTQVTVSSGGGGSGGGGSGGGGSVQLQESGGGLVQPGGSLRLSCAASGSAFSINTMGWYRQAPGKQRELVASVTPGGSTNYADSVKGRFTISRDNAKNTIYLQMNSLRPEDTAVYYCHLDEVRESSWTTSNLWGQGTQVTVSS    5e-05 s⁻¹

Task item: Recorded koff of A4-C1 (VHH) VQLQESGGGLVQPGGSLRLSCAASGSGFSINTMGWYRQAPGKQRELVATVTRDGSTNYADFVKGRFTISRDNAKNTVYLQMNSLRPEDTAVYYCHLDEVRESSWTTSNLWGQGTQVTVSSGGGGSGGGGSGGGGSVQLQESGGGLVQPGGSLRLSCAASGSGFSINTMGWYRQAPGKQRELVATVTRDGSTNYADFVKGRFTISRDNAKNTVYLQMNSLRPEDTAVYYCHLDEVRESSWTTSNLWGQGTQVTVSSGGGGSGGGGSGGGGSVQLQESGGGLVQPGGSLRLSCAASGSGFSINTMGWYRQAPGKQRELVATVTRDGSTNYADFVKGRFTISRDNAKNTVYLQMNSLRPEDTAVYYCHLDEVRESSWTTSNLWGQGTQVTVSS , please.
Reply: 0.00164 s⁻¹
